From: PubChem BioAssay (NCI)

System: SK-MEL-28 melanoma
measurement_notes: NCI tumour cell line growth inhibition, 48 h
reported_endpoint: GI50

compound: Oc1ccccc1C=Nc1nc(SCc2ccccc2)nc2[nH]ncc12
value_reported: 82800 nM
//
compound: CN(C)CC1C(=O)O[C@H]2[C@H]1CC/C(COC(=O)c1cc3ccccc3[nH]1)=C\CC[C@@]1(C)O[C@@H]21 (stereo not given in full)
value_reported: 2170 nM
//
compound: CCC[CH2][Sn]([CH2]CCC)([CH2]CCC)[O]C(=O)c1ccc(Cl)cc1Cl
value_reported: 159 nM
//
compound: CCCCCCCCCCC(C(O)c1ccccc1)N1CCCCC1 (stereo not given)
value_reported: 1830 nM
//
compound: CNCCNc1c2c(c(NCCNC)c3[nH]ccc13)C(=O)c1ccccc1C2=O
value_reported: 4180 nM
//
compound: COc1cc(-n2cc(-c3ccc(Cl)cc3)nc2SCc2cccc(C#N)c2)cc(OC)c1OC
value_reported: 31200 nM
//
compound: Cc1cc2[nH]c(=O)c3c4ccccc4cn3c2cc1C
value_reported: 14800 nM
//
compound: NCCN.NCCN.O=C([O-])CCl.O=C([O-])CCl.[Co+3].[O-][Cl+3]([O-])([O-])[O-]
value_reported: > 100000 nM
//
compound: O=C(c1ccccc1)C(Br)C(Br)c1cccc([N+](=O)[O-])c1 (stereo not given)
value_reported: 1870 nM
//
compound: Oc1[nH]c2c(Br)cccc2c1C1=Nc2ccccc2/C1=N/OCCN1CCCC1
value_reported: 1920 nM

###

The entries below are paired with their reported TGI.
Tested on: HL-60(TB) leukemia
measurement_notes: NCI tumour cell line growth inhibition, 48 h

compound: COc1ccc(N2C(=O)C3c4[nH]c5ccccc5c4C4CC(C)CC(C)C4C3C2=O)cc1 (stereo not given)
unit_info: µM
comparison_symbol: >
TGI: 100

compound: CCCCCCCCCCC(C(O)c1ccccc1)N1CCCCC1 (stereo not given)
unit_info: µM
comparison_symbol: =
TGI: 4.25

compound: O=C(O)C1C(C(=O)O)C23CC2(C(=O)O)C2(C(=O)O)CCC3=C3CCCC312 (stereo not given)
unit_info: µM
comparison_symbol: =
TGI: 18.3

compound: Oc1ccc(Cc2nccc3cc(O)c(O)cc23)cc1O
unit_info: µM
comparison_symbol: >
TGI: 100

compound: Cc1cc(=O)[nH]c2cc3c(c4c(n3Cc3ccc(Cl)cc3Cl)CC(C)(C)CC4=O)c(O)c12
unit_info: µM
comparison_symbol: >
TGI: 100

###

System: SR leukemia
measurement_notes: NCI tumour cell line growth inhibition, 48 h; in the data active means GI50 below about 0.43 µM; inactive means the rest
Classes used: active, inactive

compound: Oc1ccccc1CNCC12CC3CC(CC(C3)C1)C2
class: inactive
--
compound: Cc1cc(=O)[nH]c2cc3c(c4c(n3Cc3ccc(Cl)cc3Cl)CC(C)(C)CC4=O)c(O)c12
class: inactive
--
compound: COc1cccc2c1C(=O)c1c(O)c3c(c(O)c1C2=O)C[C@@](O)(C(=O)CO)C[C@@H]3O[C@H]1C[C@H](N)[C@@H](O)[C@H](C)O1
class: active
--
compound: COC(=O)C1CCCN1C(=O)[C@@H]1CCCN1C(=O)[C@H](Cc1c[nH]c2ccccc12)NC(=S)Nc1cc(C(F)(F)F)cc(C(F)(F)F)c1 (some centres undefined)
class: inactive
